Assignment: determine reported inhibition for the given compounds.
target: L-lactate dehydrogenase (Plasmodium falciparum (isolate CDC / Honduras)) (UniProt Q27743)
Sequence (Q27743 whole entry, looked up): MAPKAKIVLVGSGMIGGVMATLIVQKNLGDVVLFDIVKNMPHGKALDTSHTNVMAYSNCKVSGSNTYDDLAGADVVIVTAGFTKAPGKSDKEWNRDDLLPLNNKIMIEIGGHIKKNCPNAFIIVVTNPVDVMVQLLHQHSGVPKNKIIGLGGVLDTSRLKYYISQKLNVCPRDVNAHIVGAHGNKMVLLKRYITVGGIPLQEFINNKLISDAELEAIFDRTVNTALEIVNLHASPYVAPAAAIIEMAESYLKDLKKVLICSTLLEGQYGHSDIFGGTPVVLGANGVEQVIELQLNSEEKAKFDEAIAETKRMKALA
protocolDetails: PfLDH activity inhibition – cell lysate, 3D7 strain, counter-screen for P. falciparum growth inhibition project (AID 2304);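 further: 0% = vehicle and 100% = reference inhibitor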
experimentalContext: P. falciparum 3D7 crude extract, LDH APAD/NBT absorbance; at 2 µM; hits give high values
Please give a number only; it is taken to be in %.

Please report the measured inhibition for O=C(/C=C/c1ccc(Cl)c(Cl)c1)NCCCCCN1CCC(NC(=S)Nc2cccc(Cl)c2)CC1 4

Please report the measured inhibition for Cc1ccc(Cc2c(N)nc3nc(N)nc(N)c3c2C)cc1 4

Please report the measured inhibition for COc1ccccc1N(C)CCNc1cc(C)nc(Nc2ccc(C)cc2)n1 0

Please report the measured inhibition for O=C(Nc1cccc(CN2CCCN(Cc3ccc(F)cc3)CC2)c1)c1cc2ccccc2s1 -9

Please report the measured inhibition for c1cc(-c2ccc(CNCCCN3CCOCC3)cc2)cc(-c2nc3ccccc3[nH]2)c1 -2

Please report the measured inhibition for CCOc1c(OC)ccc2c1CCN(CCN1CCC(CNC(=O)c3ccc(-c4ccc(C(F)(F)F)cc4)cc3)CC1)C2 2

Please report the measured inhibition for CC(=O)Nc1ncc(C(=O)Nc2cccc(-c3ccc(-c4nc5ccc(F)cc5[nH]4)cc3)c2)s1 4

Please report the measured inhibition for CC1CC(NCCCNc2cc(=O)c3ccccc3[nH]2)c2cc(Cl)c(Cl)c(Cl)c21 (stereo not given) 3

Please report the measured inhibition for CN(C)CCCNCc1ccc(-c2ccc(CNCCc3ccccc3)cc2)cc1 0

Please report the measured inhibition for Cc1ccccc1N1CCN(c2ccc(C(=O)Nc3ccccc3)cc2)CC1 -2
